Each entry below carries its reported composite z-score.
Target: Neurogenic locus notch homolog protein 3 (Homo sapiens) (UniProt Q9UM47)
Sequence (Q9UM47 whole entry, looked up): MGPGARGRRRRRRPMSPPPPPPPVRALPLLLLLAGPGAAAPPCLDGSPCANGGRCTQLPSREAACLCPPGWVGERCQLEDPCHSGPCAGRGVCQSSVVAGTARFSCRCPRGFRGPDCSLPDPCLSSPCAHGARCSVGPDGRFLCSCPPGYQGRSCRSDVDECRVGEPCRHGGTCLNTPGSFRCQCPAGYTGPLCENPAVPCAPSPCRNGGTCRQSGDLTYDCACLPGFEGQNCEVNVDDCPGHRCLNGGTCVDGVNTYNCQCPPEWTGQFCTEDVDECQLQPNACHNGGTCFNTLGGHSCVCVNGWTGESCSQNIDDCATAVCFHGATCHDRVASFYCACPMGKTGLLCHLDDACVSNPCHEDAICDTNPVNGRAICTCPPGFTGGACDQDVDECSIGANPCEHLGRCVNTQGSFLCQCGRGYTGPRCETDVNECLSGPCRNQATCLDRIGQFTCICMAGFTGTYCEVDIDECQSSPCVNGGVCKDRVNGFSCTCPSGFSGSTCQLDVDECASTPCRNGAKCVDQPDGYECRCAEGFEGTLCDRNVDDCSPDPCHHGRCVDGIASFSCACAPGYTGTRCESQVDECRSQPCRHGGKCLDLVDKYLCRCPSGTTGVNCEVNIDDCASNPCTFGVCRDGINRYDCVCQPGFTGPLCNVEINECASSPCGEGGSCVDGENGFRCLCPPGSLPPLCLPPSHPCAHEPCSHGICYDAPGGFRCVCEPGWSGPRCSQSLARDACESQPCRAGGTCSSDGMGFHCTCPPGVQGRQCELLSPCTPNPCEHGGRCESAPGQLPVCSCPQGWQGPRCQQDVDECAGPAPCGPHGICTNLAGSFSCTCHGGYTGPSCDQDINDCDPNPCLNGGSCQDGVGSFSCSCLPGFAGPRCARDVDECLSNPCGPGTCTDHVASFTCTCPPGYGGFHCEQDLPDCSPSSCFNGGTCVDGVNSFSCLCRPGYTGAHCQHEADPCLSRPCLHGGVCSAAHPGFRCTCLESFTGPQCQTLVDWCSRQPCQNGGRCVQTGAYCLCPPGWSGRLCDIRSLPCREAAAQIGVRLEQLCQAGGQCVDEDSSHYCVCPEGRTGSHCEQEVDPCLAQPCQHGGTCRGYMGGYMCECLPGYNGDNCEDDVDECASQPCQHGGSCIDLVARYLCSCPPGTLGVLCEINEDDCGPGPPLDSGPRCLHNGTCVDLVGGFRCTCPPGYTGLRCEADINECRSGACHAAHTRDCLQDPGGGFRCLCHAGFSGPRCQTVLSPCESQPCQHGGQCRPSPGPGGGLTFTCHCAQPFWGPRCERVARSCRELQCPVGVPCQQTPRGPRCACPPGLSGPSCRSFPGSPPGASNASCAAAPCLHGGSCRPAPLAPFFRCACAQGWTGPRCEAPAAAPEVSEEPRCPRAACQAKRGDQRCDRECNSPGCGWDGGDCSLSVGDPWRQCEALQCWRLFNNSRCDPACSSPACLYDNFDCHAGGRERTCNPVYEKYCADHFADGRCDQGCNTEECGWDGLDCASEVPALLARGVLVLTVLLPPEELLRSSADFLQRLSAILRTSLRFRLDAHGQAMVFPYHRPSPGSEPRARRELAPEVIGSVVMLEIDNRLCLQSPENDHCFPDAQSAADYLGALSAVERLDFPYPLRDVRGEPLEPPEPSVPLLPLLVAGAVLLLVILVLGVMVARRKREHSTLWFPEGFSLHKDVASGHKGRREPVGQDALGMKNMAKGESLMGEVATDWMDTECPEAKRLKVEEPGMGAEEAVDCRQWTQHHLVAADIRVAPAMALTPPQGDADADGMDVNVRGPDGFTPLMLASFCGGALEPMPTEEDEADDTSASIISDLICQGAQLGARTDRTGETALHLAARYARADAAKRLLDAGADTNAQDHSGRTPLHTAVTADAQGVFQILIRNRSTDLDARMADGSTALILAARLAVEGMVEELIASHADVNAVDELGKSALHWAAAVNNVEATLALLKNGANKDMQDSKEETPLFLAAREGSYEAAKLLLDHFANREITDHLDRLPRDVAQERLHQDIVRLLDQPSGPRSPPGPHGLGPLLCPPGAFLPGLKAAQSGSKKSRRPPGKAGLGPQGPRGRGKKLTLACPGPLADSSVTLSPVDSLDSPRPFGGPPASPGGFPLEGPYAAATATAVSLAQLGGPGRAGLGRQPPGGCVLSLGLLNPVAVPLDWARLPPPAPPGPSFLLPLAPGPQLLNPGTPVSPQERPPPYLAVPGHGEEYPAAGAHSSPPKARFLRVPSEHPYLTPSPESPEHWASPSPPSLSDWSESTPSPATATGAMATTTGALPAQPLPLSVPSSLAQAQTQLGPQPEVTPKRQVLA
Assay: small molecules binding NOTCH3 protein – biochemical, 635/667 nm fluorescence, primary screen (AID 1096)
Settings: small-molecule microarray, 635 nm fluorescence, higher = more signal

Examples from the recorded data:
smiles-notation | reported-endpoint | measured-value
[N-]=[N+]=NCc1ccccc1C[C@]1(C(=O)NCCN2CCOCC2)N=C(c2ccc(OCCCO)cc2)O[C@H]1c1ccccc1 | composite z-score | 0.626
CCCC=C(CCC)[C@@H](NS(=O)(=O)c1ccccc1)c1ccc(C(F)(F)F)cc1 | composite z-score | 1.08
COc1cccc(C[C@H]2C[C@@H](CO[Si](C(C)C)(C(C)C)C(C)C)N3C(=O)[C@]4(C(C)=O)O[C@]23[C@H]2C(=O)N(C)C(=O)[C@H]24)c1 | composite z-score | 1.13

Read the next record carefully.
Value of composite z-score reported for the compound [N-]=[N+]=NCc1ccccc1[C@H]1OC(c2ccc(OCCCO)cc2)=N[C@@]1(Cc1ccccc1N=[N+]=[N-])C(=O)N1CCCCC1 is 1.12

---

Assay: FRG1 expression reporter modulators in myotubes – cell-based, C2C12 myotubes, firefly/Renilla luciferase, luminescence, FRG1 inhibition for FSHD, primary screen (AID 1084)
Conditions: FRG1 promoter luciferase, higher = more signal, called active from +8 up or from −8 down
Classification field: enter met for z-score values not below -0.4, not met for values below it.

compound | label
N#Cc1ccc(NN2C(C(O)c3ccccc3)C=CC3C(=O)N(c4ccccc4)C(=O)C32)cc1 (centres undefined) | met

Form field: z-score at least -0.4? Entry: C=C(/C(=C/C[C@@H](OC(=O)c1ccncc1)c1cccc(OCCO)c1)c1cc(C(=O)OC)ccc1OC)C(C)C not met

Form field: z-score at least -0.4? Entry: NCCCCCCNC(=O)[C@H]1C[C@H]2C(=O)N3CCC[C@H]3C(=O)N2[C@H]1c1ccc(O)cc1 not met

Form field: z-score at least -0.4? Entry: COC(=O)[C@@]1(Cc2ccc(OC)cc2)[C@H]2c3cc(C(=O)N4CCCC4)n(CCc4ccc(O)c(OC)c4)c3C[C@H]2CN1C(=O)c1ccccc1 not met

Form field: z-score at least -0.4? Entry: CN(C)CCCNC(=O)[C@@]1(Cc2ccccc2I)c2ccccc2C(=O)N(Cc2ccccc2Cl)[C@H]1c1ccc(CO)cc1 not met

Form field: z-score at least -0.4? Entry: COc1cc(C(O)C2C=CC3C(=O)NC(=O)C3N2Nc2ccc(Cl)cc2Cl)cc(OC)c1OC (centres undefined) met

Form field: z-score at least -0.4? Entry: COC(=O)[C@@]1(Cc2ccccc2)[C@H]2c3cc(C(=O)N(C)C)n(Cc4ccccn4)c3C[C@H]2CN1C(=O)c1ccccc1 met

Form field: z-score at least -0.4? Entry: COCCCNC(=O)[C@@]1(Cc2ccccc2I)c2ccccc2C(=O)N(Cc2ccccc2Cl)[C@H]1c1ccc(CO)cc1 not met

Form field: z-score at least -0.4? Entry: OCc1ccc(-c2cc[n+](Cc3cccc(OC(F)(F)F)c3)cc2)cc1 met

Form field: z-score at least -0.4? Entry: C[C@H]1NC(=O)C([C@@H](C)OCc2ccccc2)NC(=O)[C@@]23C(=O)N[C@@H](Cc4ccccc4)C2[C@H](C)[C@@]2(C)O[C@H]2C3/C=C/CC/C=C/CNC1=O (some centres undefined) met

Form field: z-score at least -0.4? Entry: COc1cc2c(cc1OC)CN(C(=O)[C@@H]1[C@H]3C(=O)O[C@H](c4ccccc4)[C@H](c4ccccc4)N3[C@H](c3ccc(O)cc3)[C@@]13C(=O)Nc1ccc(C#CCNC(N)=O)cc13)CC2 met

Form field: z-score at least -0.4? Entry: O=C(O)[C@]1(CCS(=O)(=O)c2ccccc2)N=C(c2ccc(OCCCO)cc2)O[C@@H]1c1ccccc1 met

Form field: z-score at least -0.4? Entry: NC(=O)NCC#Cc1ccc2c(c1)[C@]1(C(=O)N2)[C@H](c2ccc(O)cc2)N2[C@H](c3ccccc3)[C@H](c3ccccc3)OC(=O)[C@H]2[C@@H]1C(N)=O not met

Form field: z-score at least -0.4? Entry: CCCN1C(=O)[C@@]2(Cc3ccccc3)N=C(c3ccc(OCCCO)cc3)O[C@H]2c2ccccc21 not met

---

Experiment: JC-1 mitochondrial signal, unstimulated adipocytes – cell-based, JC-1 fluorescence, 3T3-L1 adipocytes, 24 h, 100 nL compound, profiling panel (AID 1168); further: test concentration not given here
Settings: JC-1 mitochondrial fluorescence, higher = more signal, called active from +8 up or from −8 down
Classification field: enter t for z-score values not below -0.2, f for values below it.

Answered cases to consult:
molecule | label
C=CCOc1ccc([C@@H]2CC=C(C(=O)OCC)[C@H](c3cccc(Br)c3)N2S(=O)(=O)c2ccc(C)cc2)cc1 | t
O=C(CS)NCCCCCNC(=O)[C@@H]1C[C@@H]2C(=O)N3CCC[C@H]3C(=O)N2[C@@H]1c1ccc(O)cc1 | t
CN(C)CCCN1C(=O)[C@@]2(Cc3ccccc31)c1ccccc1C(=O)N(Cc1ccccc1)[C@H]2c1ccc(CO)cc1 | f
COC(=O)[C@@]1(Cc2ccccc2)[C@H]2c3cc(C(=O)N4CCCC4)n(Cc4ccccc4)c3C[C@H]2CN1C(=O)c1ccccc1 | f
CCOC(=O)C[C@H]1[C@H](OC(=O)Cc2ccc3c(c2)OCO3)[C@@H](NC(=O)c2ccccc2)c2cc(OCCCO)ccc2N1C(=O)c1ccccc1 | t

Form field: z-score at least -0.2? Entry: COCCOC(=O)N1C(=O)[C@@]2(c3ccccc31)[C@H](c1ccccc1OCCO)N1[C@H](c3ccccc3)[C@H](c3ccccc3)OC(=O)[C@H]1[C@@H]2C(=O)N1CCc2cc(OC)c(OC)cc2C1 t

Form field: z-score at least -0.2? Entry: CN1C(=O)C2C=CC(C(O)COCc3ccccc3)N(Nc3ccccc3)C2C1=O (configuration not stated) t

---

Experiment: changes in parasitized red cell lysis, either direction – P. falciparum Indochina, OD700, 3 h, PSAC antagonist project, primary screen (AID 1156)
Conditions: P. falciparum-infected erythrocytes, osmotic lysis, higher = more signal, called active from +8 up or from −8 down
The source made the active and inactive calls.
reported-endpoint: z-score

smiles-notation | z-score
COCCOC(=O)N1C(=O)[C@@]2(c3cc(C#Cc4ccc(OC)cc4)ccc31)[C@H](C(=O)N1CCc3cc(OC)c(OC)cc3C1)[C@H]1C(=O)O[C@H](c3ccccc3)[C@H](c3ccccc3)N1[C@@H]2c1ccc(OCCO)cc1 | 1.69 (inactive)
COC(=O)[C@]1(Cc2ccccc2N=[N+]=[N-])N=C(c2ccc(OCCCO)cc2)O[C@@H]1c1ccccc1 | 1.06 (inactive)

Read the next record carefully.
Value of z-score reported for the molecule C=C(/C(=C/C[C@@H](OC(=O)c1ccncc1)c1ccccc1OCCO)c1cnc2ccccc2c1)C(C)C is -1.59 (inactive)

---

Assay: compound effects on lung adenocarcinoma cell viability – A549, calcein-AM fluorescence, 48 h, basal, profiling panel (AID 1162); further: test concentration not given here
Conditions: higher = more signal
Classification field: enter T for z-score values not below -0.03, F for values below it.

Answered cases to consult:
compound | label
CC(C)CNC(=O)[C@@]1(C)c2ccccc2C(=O)N(Cc2ccccc2)[C@H]1c1ccc(CO)cc1 | F
COC(=O)[C@@]1(Cc2ccc(F)cc2)[C@H]2c3cc(C(=O)N4CCCC4)n(Cc4ccccc4)c3C[C@H]2CN1C(=O)c1ccccc1 | F
COc1ccc([Si](C)(C)[C@H]2[C@H](CC(=O)N3CCC[C@H]3CO)O[C@@]3(C(=O)N(Cc4ccc(N5C(=O)c6cccc7cccc5c67)cc4)c4ccccc43)[C@@H]2C)cc1 | F

Form field: z-score at least -0.03? Entry: COC(=O)C(CC#Cc1ccc2c(c1)[C@]1(C(=O)N2)[C@H](c2ccc(OCCO)cc2)N2[C@H](c3ccccc3)[C@H](c3ccccc3)OC(=O)[C@H]2[C@@H]1C(=O)O)C(=O)OC T

Form field: z-score at least -0.03? Entry: COCCOC(=O)N1C(=O)[C@@]2(c3cc(C#CCC(C(=O)OC)C(=O)OC)ccc31)[C@H](C(=O)N1CCCCCCC1)[C@H]1C(=O)O[C@H](c3ccccc3)[C@H](c3ccccc3)N1[C@@H]2c1ccc(O)cc1 F

Form field: z-score at least -0.03? Entry: COC(=O)C(CC#Cc1ccc2c(c1)[C@]1(C(=O)N2)[C@H](C(=O)N2CCc3cc(OC)c(OC)cc3C2)[C@H]2C(=O)O[C@H](c3ccccc3)[C@H](c3ccccc3)N2[C@@H]1c1ccc(OCCO)cc1)C(=O)OC T

Form field: z-score at least -0.03? Entry: COCCOC(=O)N1C(=O)[C@@]2(c3cc(C#CCC(C(=O)OC)C(=O)OC)ccc31)[C@H](c1ccc(OCCO)cc1)N1[C@H](c3ccccc3)[C@H](c3ccccc3)OC(=O)[C@H]1[C@@H]2C(N)=O T

Form field: z-score at least -0.03? Entry: CC(C)CN1C(=O)[C@@]2(Cc3ccccc31)c1ccccc1C(=O)N(Cc1ccccc1)[C@H]2c1ccc(CO)cc1 F

Form field: z-score at least -0.03? Entry: CCN(CC)c1ccc(N2CC=CC34O[C@@H]5/C=C\CCCOC(=O)C5[C@H]3C(=O)N(CCCCCCO)[C@@H]4C2=O)cc1 (some centres not stated) T

Form field: z-score at least -0.03? Entry: NC(=O)NCC#Cc1ccc2c(c1)[C@]1(C(=O)N2)[C@H](c2ccc(O)cc2)N2[C@H](c3ccccc3)[C@H](c3ccccc3)OC(=O)[C@H]2[C@@H]1C(N)=O T

Form field: z-score at least -0.03? Entry: NC(=O)[C@H]1[C@@H]2C(=O)O[C@@H](c3ccccc3)[C@@H](c3ccccc3)N2[C@@H](c2ccc(O)cc2)[C@]12C(=O)Nc1ccc(C#CC3(O)CCCCCC3)cc12 T

Form field: z-score at least -0.03? Entry: COCCCNC(=O)[C@]1(Cc2ccccc2CN=[N+]=[N-])N=C(c2ccc(OCCCO)cc2)O[C@@H]1c1ccccc1CN=[N+]=[N-] F
